Data origin: patent US20250263404A1

Listed compounds paired with reported Max. activity relative to 1938
STUDY SYSTEM: PI3Kα (Homo sapiens, UniProt P42336)
Sequence (P42336 whole entry): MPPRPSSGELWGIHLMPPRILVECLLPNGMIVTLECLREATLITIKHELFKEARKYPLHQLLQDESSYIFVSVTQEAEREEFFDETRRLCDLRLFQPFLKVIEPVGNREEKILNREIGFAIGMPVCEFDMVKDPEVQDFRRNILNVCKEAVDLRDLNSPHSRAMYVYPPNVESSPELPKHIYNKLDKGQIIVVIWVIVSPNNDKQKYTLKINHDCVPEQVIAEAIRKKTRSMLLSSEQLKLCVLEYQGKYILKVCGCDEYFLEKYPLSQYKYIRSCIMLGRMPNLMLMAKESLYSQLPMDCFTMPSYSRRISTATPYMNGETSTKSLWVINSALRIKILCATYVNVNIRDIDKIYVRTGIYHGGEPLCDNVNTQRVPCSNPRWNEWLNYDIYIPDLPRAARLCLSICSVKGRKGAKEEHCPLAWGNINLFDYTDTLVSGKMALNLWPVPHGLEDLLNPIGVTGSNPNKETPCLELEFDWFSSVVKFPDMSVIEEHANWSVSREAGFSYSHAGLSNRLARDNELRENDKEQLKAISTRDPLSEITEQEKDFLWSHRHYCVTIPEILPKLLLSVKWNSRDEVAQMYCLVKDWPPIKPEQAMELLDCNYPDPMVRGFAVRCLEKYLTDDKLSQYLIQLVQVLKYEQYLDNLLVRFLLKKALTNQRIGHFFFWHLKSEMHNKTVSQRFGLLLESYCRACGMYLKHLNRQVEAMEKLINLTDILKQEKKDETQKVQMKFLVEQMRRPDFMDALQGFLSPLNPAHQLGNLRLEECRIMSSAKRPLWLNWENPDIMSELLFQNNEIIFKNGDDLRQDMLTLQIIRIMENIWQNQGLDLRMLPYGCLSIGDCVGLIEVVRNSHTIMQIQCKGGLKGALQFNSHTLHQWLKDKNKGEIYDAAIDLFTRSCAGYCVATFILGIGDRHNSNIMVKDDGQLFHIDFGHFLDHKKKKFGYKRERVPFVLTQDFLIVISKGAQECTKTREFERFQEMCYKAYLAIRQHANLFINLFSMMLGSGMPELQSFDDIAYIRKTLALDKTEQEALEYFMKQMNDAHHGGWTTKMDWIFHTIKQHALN
Sequence (P27986 whole entry partner): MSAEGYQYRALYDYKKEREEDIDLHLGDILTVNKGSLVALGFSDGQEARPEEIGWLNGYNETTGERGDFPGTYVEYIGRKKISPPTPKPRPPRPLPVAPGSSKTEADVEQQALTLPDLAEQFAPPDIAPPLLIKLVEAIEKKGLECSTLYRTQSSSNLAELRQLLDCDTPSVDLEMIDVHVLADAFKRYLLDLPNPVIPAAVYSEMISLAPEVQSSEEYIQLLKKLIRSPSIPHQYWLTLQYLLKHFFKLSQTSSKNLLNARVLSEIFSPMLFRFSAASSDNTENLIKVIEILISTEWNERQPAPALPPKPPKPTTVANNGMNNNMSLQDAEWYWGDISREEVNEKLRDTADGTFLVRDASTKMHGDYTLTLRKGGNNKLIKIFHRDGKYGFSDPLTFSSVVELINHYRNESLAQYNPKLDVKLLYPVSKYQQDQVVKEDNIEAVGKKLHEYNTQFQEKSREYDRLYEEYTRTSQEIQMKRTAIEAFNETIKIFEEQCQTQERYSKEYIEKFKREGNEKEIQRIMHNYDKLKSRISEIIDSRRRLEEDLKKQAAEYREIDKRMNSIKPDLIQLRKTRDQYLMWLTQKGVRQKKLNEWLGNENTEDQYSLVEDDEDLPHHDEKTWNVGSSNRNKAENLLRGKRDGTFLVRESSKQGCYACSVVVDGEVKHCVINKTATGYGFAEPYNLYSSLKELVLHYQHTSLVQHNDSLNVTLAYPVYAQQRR
RUN DESCRIPTION: ADP-Glo in vitro lipid kinase assay, PI3Kα
Format: biochemical
Design: Full-length p110α was expressed in a complex with full-length p85α (for biochemistry and HDX-MS); 6xHis followed by TEV protease site (N); made in house; host or cells: Spodoptera frugiperda Sf9 (baculovirus co-infection; plasmids OP831 and OP809)
STUDY CONDITIONS: relative to 1938
Entry rule: numbers only, all in %.

// known answers, use as guide
[
  {
    "MOL": "COc1cc(Nc2cc(Nc3cccc4c3N(C(C)=O)CC4)ccn2)cc(OC)c1OC",
    "Max. activity relative to 1938 / %": 80
  },
  {
    "MOL": "CC(=O)N1CCc2cccc(Nc3ccnc(Nc4ccccc4)c3)c21",
    "Max. activity relative to 1938 / %": 9
  },
  {
    "MOL": "CCN1CCN(c2ccc(Nc3cc(Nc4ccncn4)ccn3)cc2)CC1",
    "Max. activity relative to 1938 / %": 4
  },
  {
    "MOL": "CCN1CCN(c2ccc(Nc3nccc(Nc4cccc5c4N(C(C)=O)CC5)n3)cc2)CC1",
    "Max. activity relative to 1938 / %": 4
  },
  {
    "MOL": "CCN1CCN(c2ccc(Nc3cc(Nc4cccc5c4N(C(C)=O)CC5)ccn3)cc2)CC1",
    "Max. activity relative to 1938 / %": 100
  }
]

# ---- query compound ----
Q. Recorded Max. activity relative to 1938 for COc1cc(N2CCN(C)CC2)ccc1Nc1cc(Nc2cccc3c2N(C(C)=O)CC3)ccn1 , please?
A. 102

* * *

STUDY SYSTEM: PI3Kα (Homo sapiens, UniProt P42336)
RUN DESCRIPTION: pAKT S473 ELISA in A549 cells (PI3Kα activation)
Type: cell-based
Set-up: endogenous in cells; host or cells: A549
STUDY CONDITIONS: A549 cells, 15 min treatment, pAKT S473 ELISA, normalised to Emax of 1 μM insulin; read-out: Av EC50
Experimental: EC50 values were determined by quantifying phosphorylation on S473 residues of Akt in A549 human adenocarcinoma cells by ELISA (enzyme linked immunoadsorbent assay, R&D Systems, DYC887BE). […] Levels of pAKT-S473 were determined using the phospho-AKT (S473) pan-specific Duoset IC ELISA (R&D Systems #DYC887BE) in 96-well white high-binding plates (Corning #3922) according to manufacturer's instructions. Endpoint luminescence was measured using a Sense (Hidex) platereader. […]
VALUE TYPE: pEC50
Bear in mind: pEC50 is minus log10 of a mol/L concentration; give just that figure.

[
  {
    "MOLECULE": "CC(=O)N1CCc2cc(Nc3cc(Nc4cc(C(C)(C)C)nn4C)ccn3)ccc21 [83 (2109)]",
    "pEC50": 5.56
  }
]

Q. I would be grateful if you could share the reported pEC50 for CCN1CCN(c2ccc(Nc3cc(Nc4cccc5c4N(C(C)=O)CC5)ccn3)cc2)CC1 [12 (1938)] .
A. 5.82

Q. Entry COCCN1CCN(c2ccc(Nc3cc(Nc4cccc5c4N(C(C)=O)CC5)ccn3)c(OC)c2)CC1 [27 (1994)] : reported pEC50 = ?
A. 5.89

Q. What value of pEC50 has been reported for the following molecule? COc1cc(N2CCN(C)CC2)ccc1Nc1cc(Nc2cccc(-c3ccccn3)c2)ccn1 [59 (2052)]
A. 6.26

Q. If you can, please state the reported pEC50 value of COc1ccc(S(C)(=O)=O)cc1Nc1cc(Nc2cccc3c2N(C(C)=O)CC3)ccn1 [R1 (1888)] .
A. 5.81

Q. # query: pEC50 of entry CCN1CCN(c2ccc(Nc3cc(Nc4cccc(S(C)(=O)=O)c4)ccn3)cc2)CC1 [82 (2108)]
A. 5.82

Q. Request the reported pEC50 associated with COc1cc(N2CCN(C)CC2)ccc1Nc1cc(Nc2cccc3c2N(C(=O)C(C)C)CC3)ccn1 [15 (1943)]
A. 5.62

Q. Give the measured pEC50 of COc1cc(N2CCOCC2)ccc1Nc1cc(Nc2cccc3c2N(C(C)=O)CC3)ccn1 [7 (1912)] .
A. 6.27

Q. Please report the recorded pEC50 for COc1cc(N2CCN(C)CC2)ccc1Nc1cc(Nc2cccc(S(C)(=O)=O)c2)ccn1 [54 (2043)] .
A. 5.91

Q. Quick one: pEC50 for COc1ccccc1Nc1cc(Nc2cccc3c2N(C(C)=O)CC3)ccn1 [99 (2356)] ?
A. 5.32

Q. Recorded pEC50 for COc1cc(N2CCN(C)CC2)ccc1Nc1cc(Nc2cc(C(C)C)nn2C)ccn1 [30 (2000)] , please?
A. 5.31

Q. Entry under review: COc1cc(N2CCN(C)CC2)ccc1Nc1cc(Nc2ccn(C)n2)ccn1 [3 (1904)] . Reported pEC50?
A. 5.01

Q. # query: pEC50 of entry COCC(=O)N1CCc2cccc(Nc3ccnc(Nc4ccc(N5CCN(C)CC5)cc4OC)c3)c21 [17 (1950)]
A. 5.32
